Recorded values, source patent US20100113276A1.

# assay: log P by HPLC on reversed-phase column (C18), EEC Directive 79/831 Annex V.A8
# Type: physicochemical
# reportedConditions: C18, 40° C., aqueous formic acid / acetonitrile
# note: exactly 3 is not below, so it is rule not met; use rule met for log p HCO2H strictly under it

[[record]]
molecule = "CCN(C)C=Nc1cc(C)c(Oc2ccc(Cl)c(C(C)C)c2)cc1Cl [compound 898]"
labelclass = "rule met"

[[record]]
molecule = "Cc1cc(Oc2nc(C(C)(C)C)ns2)c(Cl)cc1N=CN1CCCCC1 [compound 610]"
labelclass = "rule met"

[[record]]
molecule = "FC(F)(F)c1cc(Oc2cc(Cl)c(N=CN3CCCCC3)cc2C(F)(F)F)ccc1Cl [compound 951]"
labelclass = "rule not met"

[[record]]
molecule = "CCC(C)N(C)C=Nc1cc(Cl)c(Oc2ccc(Cl)c(C(C)(C)C)c2)cc1C (stereo not drawn) [compound 579]"
labelclass = "rule not met"

[[record]]
molecule = "CCN(C)C=Nc1cc(C)c(Oc2cccc(C(C)(C)C)c2)cc1Cl [compound 870]"
labelclass = "rule met"

[[record]]
molecule = "Cc1cc(Oc2ccc(Cl)c(C(C)C)c2)c(Cl)cc1N=CN(C)C(C)C [compound 572]"
labelclass = "rule met"

[[record]]
molecule = "CC(C)N(C)C=Nc1cc(Cl)c(Oc2cccc(C(C)(C)C)c2)cc1Cl [compound 807]"
labelclass = "rule met"

[[record]]
molecule = "CCN(C)C=Nc1cc(Cl)c(Oc2nc(C(C)(C)C)ns2)cc1Cl [compound 825]"
labelclass = "rule met"

[[record]]
molecule = "Cc1cc(Oc2cccc(C(C)(C)C)c2)c(C)cc1N=CN(C)C(C)C [compound 440]"
labelclass = "rule met"

